# System: Aspergillus niger
# assay: Antifungal activity against Aspergillus niger MTCC 1781 after 2 to 3 days by agar well diffusion method
# Assay type: functional
# measurement.parameters: Aspergillus niger, MTCC 1781
Quick list: MIC per entry.
recorded.endpoint: MIC

- structure: "CN(C)CCNc1nc(NCCN(C)C)nc(Nc2ccc(C#N)nc2)n1.Cl"
  recorded.endpoint: "MIC"
  obs.value: "25 µg/mL"
- structure: "Cl.N#Cc1ccc(Nc2nc(NCCN3CCOCC3)nc(NCCN3CCOCC3)n2)cn1"
  recorded.endpoint: "MIC"
  obs.value: "50 µg/mL"
- structure: "Cl.N#Cc1ccc(Nc2nc(NC3CCCCC3)nc(NC3CCCCC3)n2)cn1"
  recorded.endpoint: "MIC"
  obs.value: "12.5 µg/mL"
- structure: "Cc1ccc(Nc2nc(Nc3ccc(C)cc3)nc(Nc3ccc(C#N)nc3)n2)cc1.Cl"
  recorded.endpoint: "MIC"
  obs.value: "100 µg/mL"
- structure: "Cl.N#Cc1ccc(Nc2nc(Nc3cc[nH]n3)nc(Nc3cc[nH]n3)n2)cn1"
  recorded.endpoint: "MIC"
  obs.value: "12.5 µg/mL"
- structure: "Cl.N#Cc1ccc(Nc2nc(N3CCN(c4ccccc4)CC3)nc(N3CCN(c4ccccc4)CC3)n2)cn1"
  recorded.endpoint: "MIC"
  obs.value: "25 µg/mL"
- structure: "Cl.N#Cc1ccc(Nc2nc(N3CCCC3)nc(N3CCCC3)n2)cn1"
  recorded.endpoint: "MIC"
  obs.value: "50 µg/mL"
- structure: "Cl.N#Cc1ccc(Nc2nc(N3CCN(C(=O)c4ccccc4)CC3)nc(N3CCN(C(=O)c4ccccc4)CC3)n2)cn1"
  recorded.endpoint: "MIC"
  obs.value: "50 µg/mL"
- structure: "CC(=O)N1CCN(c2nc(Nc3ccc(C#N)nc3)nc(N3CCN(C(C)=O)CC3)n2)CC1.Cl"
  recorded.endpoint: "MIC"
  obs.value: "100 µg/mL"
- structure: "COc1cccc(Nc2nc(Nc3ccc(C#N)nc3)nc(Nc3cccc(OC)c3)n2)c1.Cl"
  recorded.endpoint: "MIC"
  obs.value: "25 µg/mL"
- structure: "Cl.N#Cc1ccc(Nc2nc(NCc3ccco3)nc(NCc3ccco3)n2)cn1"
  recorded.endpoint: "MIC"
  obs.value: "12.5 µg/mL"
- structure: "COCCNc1nc(NCCOC)nc(Nc2ccc(C#N)nc2)n1.Cl"
  recorded.endpoint: "MIC"
  obs.value: "12.5 µg/mL"
- structure: "Cl.N#Cc1ccc(Nc2nc(N3CCCCC3)nc(N3CCCCC3)n2)cn1"
  recorded.endpoint: "MIC"
  obs.value: "25 µg/mL"
- structure: "Cl.N#Cc1ccc(Nc2nc(NC3CCCC3)nc(NC3CCCC3)n2)cn1"
  recorded.endpoint: "MIC"
  obs.value: "25 µg/mL"
- structure: "Cl.N#Cc1ccc(Nc2nc(N3CCOCC3)nc(N3CCOCC3)n2)cn1"
  recorded.endpoint: "MIC"
  obs.value: "100 µg/mL"
- structure: "CN1CCN(c2nc(Nc3ccc(C#N)nc3)nc(N3CCN(C)CC3)n2)CC1.Cl"
  recorded.endpoint: "MIC"
  obs.value: "50 µg/mL"
- structure: "Cl.N#Cc1ccc(Nc2nc(Nc3ccc(F)cc3)nc(Nc3ccc(F)cc3)n2)cn1"
  recorded.endpoint: "MIC"
  obs.value: "25 µg/mL"
- structure: "Cl.N#Cc1ccc(Nc2nc(N3CCNCC3)nc(N3CCNCC3)n2)cn1"
  recorded.endpoint: "MIC"
  obs.value: "100 µg/mL"

###

# System: Escherichia coli
# assay: Antimicrobial activity against Escherichia coli MTCC 1650 after 24 hrs by agar well diffusion method
# Assay type: functional
# measurement.parameters: Escherichia coli, MTCC 1650, 24 h
recorded.endpoint: MIC (µg/mL)

- compound: "Cl.N#Cc1ccc(Nc2nc(Nc3ccc(F)cc3)nc(Nc3ccc(F)cc3)n2)cn1"
  tested.target: "Escherichia coli"
  obs.value: 25
- compound: "Cl.N#Cc1ccc(Nc2nc(NC3CCCC3)nc(NC3CCCC3)n2)cn1"
  tested.target: "Escherichia coli"
  obs.value: 6.25
- compound: "CN(C)CCNc1nc(NCCN(C)C)nc(Nc2ccc(C#N)nc2)n1.Cl"
  tested.target: "Escherichia coli"
  obs.value: 12.5
- compound: "Cl.N#Cc1ccc(Nc2nc(NCc3ccco3)nc(NCc3ccco3)n2)cn1"
  tested.target: "Escherichia coli"
  obs.value: 6.25
- compound: "Cl.N#Cc1ccc(Nc2nc(N3CCOCC3)nc(N3CCOCC3)n2)cn1"
  tested.target: "Escherichia coli"
  obs.value: 50
- compound: "CN1CCN(c2nc(Nc3ccc(C#N)nc3)nc(N3CCN(C)CC3)n2)CC1.Cl"
  tested.target: "Escherichia coli"
  obs.value: 12.5
- compound: "Cl.N#Cc1ccc(Nc2nc(N3CCCC3)nc(N3CCCC3)n2)cn1"
  tested.target: "Escherichia coli"
  obs.value: 50
- compound: "COc1cccc(Nc2nc(Nc3ccc(C#N)nc3)nc(Nc3cccc(OC)c3)n2)c1.Cl"
  tested.target: "Escherichia coli"
  obs.value: 6.25
- compound: "CC(=O)N1CCN(c2nc(Nc3ccc(C#N)nc3)nc(N3CCN(C(C)=O)CC3)n2)CC1.Cl"
  tested.target: "Escherichia coli"
  obs.value: 50
- compound: "Cl.N#Cc1ccc(Nc2nc(N3CCN(c4ccccc4)CC3)nc(N3CCN(c4ccccc4)CC3)n2)cn1"
  tested.target: "Escherichia coli"
  obs.value: 6.25
- compound: "Cl.N#Cc1ccc(Nc2nc(N3CCNCC3)nc(N3CCNCC3)n2)cn1"
  tested.target: "Escherichia coli"
  obs.value: 50
- compound: "Cc1ccc(Nc2nc(Nc3ccc(C)cc3)nc(Nc3ccc(C#N)nc3)n2)cc1.Cl"
  tested.target: "Escherichia coli"
  obs.value: 12.5
- compound: "CN[C@@H]1[C@H](O[C@H]2[C@H](O[C@H]3[C@H](O)[C@@H](O)[C@H](N=C(N)N)[C@@H](O)[C@@H]3N=C(N)N)O[C@@H](C)[C@]2(O)C=O)O[C@@H](CO)[C@H](O)[C@H]1O [STREPTOMYCIN]"
  tested.target: "Escherichia coli"
  obs.value: 6.25
- compound: "Cl.N#Cc1ccc(Nc2nc(N3CCN(C(=O)c4ccccc4)CC3)nc(N3CCN(C(=O)c4ccccc4)CC3)n2)cn1"
  tested.target: "Escherichia coli"
  obs.value: 25
- compound: "Cl.N#Cc1ccc(Nc2nc(Nc3cc[nH]n3)nc(Nc3cc[nH]n3)n2)cn1"
  tested.target: "Escherichia coli"
  obs.value: 6.25
- compound: "Cl.N#Cc1ccc(Nc2nc(N3CCCCC3)nc(N3CCCCC3)n2)cn1"
  tested.target: "Escherichia coli"
  obs.value: 25
- compound: "Cl.N#Cc1ccc(Nc2nc(NC3CCCCC3)nc(NC3CCCCC3)n2)cn1"
  tested.target: "Escherichia coli"
  obs.value: 6.25
- compound: "COCCNc1nc(NCCOC)nc(Nc2ccc(C#N)nc2)n1.Cl"
  tested.target: "Escherichia coli"
  obs.value: 6.25
- compound: "Cl.N#Cc1ccc(Nc2nc(NCCN3CCOCC3)nc(NCCN3CCOCC3)n2)cn1"
  tested.target: "Escherichia coli"
  obs.value: 25

###

# System: Pseudomonas aeruginosa
# assay: Antimicrobial activity against Pseudomonas aeruginosa MTCC 1688 after 24 hrs by agar well diffusion method
# Assay type: functional
# measurement.parameters: Pseudomonas aeruginosa, MTCC 1688, 24 h
Sorting guide: entries reporting MIC beneath 20 µg/mL go in the label 1 pile, the rest go in the label 0 pile.

- structure: "Cl.N#Cc1ccc(Nc2nc(N3CCCCC3)nc(N3CCCCC3)n2)cn1"
  class: "label 0"
- structure: "CN(C)CCNc1nc(NCCN(C)C)nc(Nc2ccc(C#N)nc2)n1.Cl"
  class: "label 1"
- structure: "Cl.N#Cc1ccc(Nc2nc(N3CCOCC3)nc(N3CCOCC3)n2)cn1"
  class: "label 0"
- structure: "Cc1ccc(Nc2nc(Nc3ccc(C)cc3)nc(Nc3ccc(C#N)nc3)n2)cc1.Cl"
  class: "label 0"
- structure: "CN1CCN(c2nc(Nc3ccc(C#N)nc3)nc(N3CCN(C)CC3)n2)CC1.Cl"
  class: "label 1"
- structure: "Cl.N#Cc1ccc(Nc2nc(NCc3ccco3)nc(NCc3ccco3)n2)cn1"
  class: "label 1"
- structure: "Cl.N#Cc1ccc(Nc2nc(Nc3ccc(F)cc3)nc(Nc3ccc(F)cc3)n2)cn1"
  class: "label 0"
- structure: "Cl.N#Cc1ccc(Nc2nc(NC3CCCC3)nc(NC3CCCC3)n2)cn1"
  class: "label 1"
- structure: "Cl.N#Cc1ccc(Nc2nc(NCCN3CCOCC3)nc(NCCN3CCOCC3)n2)cn1"
  class: "label 0"
- structure: "Cl.N#Cc1ccc(Nc2nc(N3CCCC3)nc(N3CCCC3)n2)cn1"
  class: "label 0"
- structure: "CN[C@@H]1[C@H](O[C@H]2[C@H](O[C@H]3[C@H](O)[C@@H](O)[C@H](N=C(N)N)[C@@H](O)[C@@H]3N=C(N)N)O[C@@H](C)[C@]2(O)C=O)O[C@@H](CO)[C@H](O)[C@H]1O"
  class: "label 1"
- structure: "Cl.N#Cc1ccc(Nc2nc(N3CCN(C(=O)c4ccccc4)CC3)nc(N3CCN(C(=O)c4ccccc4)CC3)n2)cn1"
  class: "label 0"
- structure: "Cl.N#Cc1ccc(Nc2nc(N3CCN(c4ccccc4)CC3)nc(N3CCN(c4ccccc4)CC3)n2)cn1"
  class: "label 1"
- structure: "COCCNc1nc(NCCOC)nc(Nc2ccc(C#N)nc2)n1.Cl"
  class: "label 1"
- structure: "COc1cccc(Nc2nc(Nc3ccc(C#N)nc3)nc(Nc3cccc(OC)c3)n2)c1.Cl"
  class: "label 1"
- structure: "Cl.N#Cc1ccc(Nc2nc(N3CCNCC3)nc(N3CCNCC3)n2)cn1"
  class: "label 0"
- structure: "CC(=O)N1CCN(c2nc(Nc3ccc(C#N)nc3)nc(N3CCN(C(C)=O)CC3)n2)CC1.Cl"
  class: "label 0"
- structure: "Cl.N#Cc1ccc(Nc2nc(Nc3cc[nH]n3)nc(Nc3cc[nH]n3)n2)cn1"
  class: "label 1"
- structure: "Cl.N#Cc1ccc(Nc2nc(NC3CCCCC3)nc(NC3CCCCC3)n2)cn1"
  class: "label 1"

Origin of measurements: ChEMBL document CHEMBL2057118
